All values here come from patent US20100143349A1.

# TARGET_UNDER_TEST: T1, hRAGE-Fc (human, UniProt Q15109 23-342, biotin label in the selections and HTRF assays)
# T1 construct: extracellular domain; also called biotin labeled hRAGE-Fc; Biotin-labeled RAGE-Fc; not shown: Fc part
# EXPERIMENTAL_DETAILS: IC50 of parental M4 scFv over IC50 of clone, HTRF competition
Each entry below carries its reported Fold gain scFv (hRAGE).
Quote the value and follow it with the unit of measurement.

>>> reported_result("S1R5A1_3B3 scFv (scFv) scFv: DIQMTQSPSSLSASVGDRVTITCRASQDVGFYVNWFQQKPGKAPRRLIYRATNLADGVPSRFSGSRSGTDFTLTISSLQPEDFATYYCLEFDEHPLTFGGGTKVEIKDGGGSGGGGSGGGGSSEVQLVESGGGLVQPGGSLRLSCAASGFTFNNYWMTWVRQAPGKGLEWVASIDNSGDNTYYPDSVKDRFTISRDNAKNSLYLQMNSLRAEDTAVYYCARGGDITTGLDYWGQGTLVTVSS")
"15 fold"

Field: next binder
Item 3G5 scFv (scFv) scFv: DIQMTQSPSSLSASVGDRVTITCRASQDVGIYVNWFQQKPGKAPRRLIYRATNLADGVPSRFSGSRSGTDFTLTISSLQPEDFATYYCLEFDEHPLTFGGGTKVEIKDGGGSGGGGSGGGGSSEVQLVESGGGLVQPGGSLRLSCAASGFTFNNYWMTWVRQAPGKGLEWVASIDNSGDNTYYPDSVKDRFTISRDNAKNSLYLQMNSLRAEDTAVYYCARGGDILDSLPYWGQGTLVTVSS has what recorded Fold gain scFv (hRAGE)?
37.9 fold
